Source: ChEMBL document CHEMBL3808348

Assay: Cmax in Swiss mouse plasma at 20 mg/kg, po by LC/MS/MS analysis
Format: ADME, organism-based
Parameters: dose 20 mg/kg, route oral
OBSERVABLE: Cmax (ng/mL)
Unit ng/mL implied. Number only.

Prompt: Quick one: Cmax for `COC(=O)c1cc2cc(NCc3cc(NC(=O)c4cc(-n5cnc(C)c5)cc(C(F)(F)F)c4)ccc3C)cnc2[nH]1` ?
Response: 610

====

Biological target: hERG (KCNH2) (Homo sapiens)
Sequence (Q12809 whole entry): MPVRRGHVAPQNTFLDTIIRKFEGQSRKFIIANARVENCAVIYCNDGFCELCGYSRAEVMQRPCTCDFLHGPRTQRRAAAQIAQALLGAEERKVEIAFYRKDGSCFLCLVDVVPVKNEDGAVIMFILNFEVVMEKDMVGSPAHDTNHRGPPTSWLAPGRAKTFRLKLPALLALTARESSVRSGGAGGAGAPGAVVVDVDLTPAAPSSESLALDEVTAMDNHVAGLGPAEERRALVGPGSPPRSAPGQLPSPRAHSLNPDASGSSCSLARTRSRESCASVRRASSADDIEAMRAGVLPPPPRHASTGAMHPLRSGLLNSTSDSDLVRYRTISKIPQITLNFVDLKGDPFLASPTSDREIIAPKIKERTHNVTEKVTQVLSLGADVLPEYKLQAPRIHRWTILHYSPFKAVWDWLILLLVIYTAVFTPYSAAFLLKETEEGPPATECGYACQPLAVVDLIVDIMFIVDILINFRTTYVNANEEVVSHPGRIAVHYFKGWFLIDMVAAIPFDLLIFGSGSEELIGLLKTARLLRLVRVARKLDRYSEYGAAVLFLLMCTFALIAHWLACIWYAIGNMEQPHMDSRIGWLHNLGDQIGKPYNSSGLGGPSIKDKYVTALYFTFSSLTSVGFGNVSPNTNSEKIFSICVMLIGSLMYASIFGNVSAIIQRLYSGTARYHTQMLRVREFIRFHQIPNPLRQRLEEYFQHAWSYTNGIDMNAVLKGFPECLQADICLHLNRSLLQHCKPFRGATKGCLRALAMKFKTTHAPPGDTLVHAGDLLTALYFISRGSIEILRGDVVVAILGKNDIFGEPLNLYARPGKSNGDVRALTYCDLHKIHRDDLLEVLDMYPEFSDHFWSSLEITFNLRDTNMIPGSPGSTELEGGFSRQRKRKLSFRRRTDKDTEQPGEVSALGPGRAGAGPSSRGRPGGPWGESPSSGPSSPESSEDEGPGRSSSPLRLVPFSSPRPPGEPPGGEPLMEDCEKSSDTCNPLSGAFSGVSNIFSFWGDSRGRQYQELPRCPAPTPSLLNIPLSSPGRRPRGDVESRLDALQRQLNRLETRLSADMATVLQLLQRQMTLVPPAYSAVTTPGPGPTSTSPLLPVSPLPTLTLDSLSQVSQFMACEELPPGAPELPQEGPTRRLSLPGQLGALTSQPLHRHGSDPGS
Test: Inhibition of human ERG expressed in HEK293 cells at 30 uM by patch clamp assay
Assay type: cell-based
Conditions: HEK293 cells expressing human ERG
OBSERVABLE: inhibition at 30 µM

Prompt: Quick one: inhibition at 30 µM for `COC(=O)c1cc2cc(NCc3cc(NC(=O)c4cc(-n5cnc(C)c5)cc(C(F)(F)F)c4)ccc3C)cnc2[nH]1` ?
Response: 26%

====

Molecular target: Epidermal growth factor receptor (Homo sapiens)
Sequence (P00533 whole entry, the tested form may be a part): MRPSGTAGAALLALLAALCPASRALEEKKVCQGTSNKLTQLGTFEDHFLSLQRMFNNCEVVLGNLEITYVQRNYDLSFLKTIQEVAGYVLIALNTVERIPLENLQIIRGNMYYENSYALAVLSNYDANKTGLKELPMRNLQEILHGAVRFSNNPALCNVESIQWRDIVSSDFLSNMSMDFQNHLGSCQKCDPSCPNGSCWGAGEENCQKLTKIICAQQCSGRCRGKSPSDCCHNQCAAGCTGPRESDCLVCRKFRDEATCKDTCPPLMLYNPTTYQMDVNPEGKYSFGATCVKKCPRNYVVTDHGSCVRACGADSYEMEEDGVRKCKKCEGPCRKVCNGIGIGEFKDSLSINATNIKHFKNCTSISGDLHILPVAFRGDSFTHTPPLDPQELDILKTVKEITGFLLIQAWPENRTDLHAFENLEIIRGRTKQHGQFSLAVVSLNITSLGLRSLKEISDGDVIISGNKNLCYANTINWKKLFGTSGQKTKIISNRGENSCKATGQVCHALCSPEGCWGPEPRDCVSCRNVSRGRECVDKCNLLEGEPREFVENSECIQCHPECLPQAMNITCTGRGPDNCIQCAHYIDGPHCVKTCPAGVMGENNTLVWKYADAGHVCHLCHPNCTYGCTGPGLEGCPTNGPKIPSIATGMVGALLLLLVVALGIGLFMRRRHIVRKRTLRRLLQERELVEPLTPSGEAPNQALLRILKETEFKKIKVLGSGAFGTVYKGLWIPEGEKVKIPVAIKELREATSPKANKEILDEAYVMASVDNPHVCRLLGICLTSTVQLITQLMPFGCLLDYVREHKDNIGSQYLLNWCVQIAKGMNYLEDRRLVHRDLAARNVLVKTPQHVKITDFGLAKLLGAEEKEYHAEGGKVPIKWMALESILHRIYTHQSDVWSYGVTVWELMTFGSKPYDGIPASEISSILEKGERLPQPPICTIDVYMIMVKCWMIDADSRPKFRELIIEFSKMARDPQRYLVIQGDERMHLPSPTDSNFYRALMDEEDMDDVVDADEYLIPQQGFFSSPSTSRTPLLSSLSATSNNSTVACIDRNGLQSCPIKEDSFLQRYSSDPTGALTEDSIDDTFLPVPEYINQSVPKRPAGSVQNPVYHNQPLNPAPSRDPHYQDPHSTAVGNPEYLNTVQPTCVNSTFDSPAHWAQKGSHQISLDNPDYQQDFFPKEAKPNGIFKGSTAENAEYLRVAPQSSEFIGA
Assay: Inhibition of GST-tagged human recombinant EGFR (668 to1210 residues) expressed in baculovirus using Fluorescein-Poly GT as substrate at 100 nM
OBSERVABLE: inhibition (%)
Unit % implied. Number only.

Sample answers from the record:
Prompt: Form field - read-out: inhibition; system: Epidermal growth factor receptor (Homo sapiens); submitted item: `COC(=O)c1cc2cc(NCc3cc(NC(=O)c4ccc5c(c4)OCO5)ccc3C)cnc2[nH]1`
Response: 40

Prompt: Form field - read-out: inhibition; system: Epidermal growth factor receptor (Homo sapiens); submitted item: CC(=O)c1cc2cc(NCc3cc(NC(=O)c4ccc(CN5CCC(N(C)C)C5)c(C(F)(F)F)c4)ccc3C)cnc2[nH]1 (configuration not stated)
Response: 94

Prompt: Form field - read-out: inhibition; system: Epidermal growth factor receptor (Homo sapiens); submitted item: `COC(=O)c1cc2cc(NCc3cc(NC(=O)c4cncc(C)c4)ccc3C)cnc2[nH]1`
Response: 72

Prompt: Form field - read-out: inhibition; system: Epidermal growth factor receptor (Homo sapiens); submitted item: COC(=O)c1cc2cc(NC(=O)c3cc(NC(=O)c4ccc(CN5CCC(N(C)C)C5)c(C(F)(F)F)c4)ccc3C)cnc2[nH]1 (configuration not stated)
Response: 76

Prompt: Form field - read-out: inhibition; system: Epidermal growth factor receptor (Homo sapiens); submitted item: `COC(=O)c1cc2cc(NCc3cc(NC(=O)c4cncc(C(F)(F)F)c4)ccc3C)cnc2[nH]1`
Response: 78

Prompt: Form field - read-out: inhibition; system: Epidermal growth factor receptor (Homo sapiens); submitted item: `COC(=O)c1cc2cc(NCc3cc(NC(=O)c4ccc5[nH]ccc5c4)ccc3C)cnc2[nH]1`
Response: 45

Prompt: Form field - read-out: inhibition; system: Epidermal growth factor receptor (Homo sapiens); submitted item: `COC(=O)c1cc2cc(CCc3cc(NC(=O)c4ccc(CN5CCN(C)CC5)cc4)ccc3C)cnc2[nH]1`
Response: 98

Prompt: Form field - read-out: inhibition; system: Epidermal growth factor receptor (Homo sapiens); submitted item: `COC(=O)c1cc2cc(/C=C/c3cc(NC(=O)c4ccc(CN5CCN(C)CC5)cc4)ccc3C)cnc2[nH]1`
Response: 38

More entries:
Prompt: Form field - read-out: inhibition; system: Epidermal growth factor receptor (Homo sapiens); submitted item: `COC(=O)c1cc2cc(NCc3cc(NC(=O)c4cc(-n5cnc(C)c5)cc(C(F)(F)F)c4)ccc3C)cnc2[nH]1`
Response: 82

Prompt: Form field - read-out: inhibition; system: Epidermal growth factor receptor (Homo sapiens); submitted item: `Cc1ccc(NC(=O)c2ccc(CN3CCN(C)CC3)cc2)cc1CNc1cnc2[nH]c(C(=O)O)cc2c1`
Response: 96

Prompt: Form field - read-out: inhibition; system: Epidermal growth factor receptor (Homo sapiens); submitted item: `COC(=O)c1cc2cc(NCc3cc(NC(=O)c4ccnc(C)c4)ccc3C)cnc2[nH]1`
Response: 49

Prompt: Form field - read-out: inhibition; system: Epidermal growth factor receptor (Homo sapiens); submitted item: `COC(=O)c1cc2cc(NCc3cc(NC(=O)c4cccc(Br)c4)ccc3C)cnc2[nH]1`
Response: 35

Prompt: Form field - read-out: inhibition; system: Epidermal growth factor receptor (Homo sapiens); submitted item: `COC(=O)c1cc2cc(NC(=O)c3cc(NC(=O)c4ccc(CN5CCN(C)CC5)cc4)ccc3C)cnc2[nH]1`
Response: 65

Prompt: Form field - read-out: inhibition; system: Epidermal growth factor receptor (Homo sapiens); submitted item: `CC(=O)c1cc2cc(NCc3cc(NC(=O)c4cc(-n5cnc(C)c5)cc(C(F)(F)F)c4)ccc3C)cnc2[nH]1`
Response: 43

Prompt: Form field - read-out: inhibition; system: Epidermal growth factor receptor (Homo sapiens); submitted item: COC(=O)c1cc2cc(COc3cc(NC(=O)c4ccc(CN5CCC(N(C)C)C5)c(C(F)(F)F)c4)ccc3C)cnc2[nH]1 (configuration not stated)
Response: 93

Prompt: Form field - read-out: inhibition; system: Epidermal growth factor receptor (Homo sapiens); submitted item: COC(=O)c1cc2cc(CCc3cc(NC(=O)c4ccc(CN5CCC(N(C)C)C5)c(C(F)(F)F)c4)ccc3C)cnc2[nH]1 (configuration not stated)
Response: 97

Prompt: Form field - read-out: inhibition; system: Epidermal growth factor receptor (Homo sapiens); submitted item: `COC(=O)c1cc2cc(NCc3cc(NC(=O)Cc4cccc(C(F)(F)F)c4)ccc3C)cnc2[nH]1`
Response: 2

Prompt: Form field - read-out: inhibition; system: Epidermal growth factor receptor (Homo sapiens); submitted item: CNC(=O)c1cc2cc(NCc3cc(NC(=O)c4ccc(CN5CCC(N(C)C)C5)c(C(F)(F)F)c4)ccc3C)cnc2[nH]1 (configuration not stated)
Response: 101

Prompt: Form field - read-out: inhibition; system: Epidermal growth factor receptor (Homo sapiens); submitted item: `COC(=O)c1cc2cc(NCc3cc(NC(=O)c4ccc(O)c(C(F)(F)F)c4)ccc3C)cnc2[nH]1`
Response: 53

Prompt: Form field - read-out: inhibition; system: Epidermal growth factor receptor (Homo sapiens); submitted item: `COC(=O)c1cc2cc(NCc3cc(NC(=O)c4ccnc(C(F)(F)F)c4)ccc3C)cnc2[nH]1`
Response: 32

Prompt: Form field - read-out: inhibition; system: Epidermal growth factor receptor (Homo sapiens); submitted item: `CNC(=O)c1cc2cc(NCc3cc(NC(=O)c4ccc(CN5CCN(C)CC5)cc4)ccc3C)cnc2[nH]1`
Response: 99

Prompt: Form field - read-out: inhibition; system: Epidermal growth factor receptor (Homo sapiens); submitted item: `COC(=O)c1cc2cc(NCc3cc(NC(=O)c4cc[nH]c4)ccc3C)cnc2[nH]1`
Response: 15

Prompt: Form field - read-out: inhibition; system: Epidermal growth factor receptor (Homo sapiens); submitted item: `COC(=O)c1cc2cc(CNc3cc(NC(=O)c4ccc(CN5CCN(C)CC5)cc4)ccc3C)cnc2[nH]1`
Response: 63

Prompt: Form field - read-out: inhibition; system: Epidermal growth factor receptor (Homo sapiens); submitted item: `COC(=O)c1cc2cc(NCc3cc(NC(=O)c4ccc5nn[nH]c5c4)ccc3C)cnc2[nH]1`
Response: 20
